Source listed as paper PMC11462347.

Target: tyrosinase (Agaricus bisporus, UniProt C7FF04)
Sequence (C7FF04 1-392 limits assumed): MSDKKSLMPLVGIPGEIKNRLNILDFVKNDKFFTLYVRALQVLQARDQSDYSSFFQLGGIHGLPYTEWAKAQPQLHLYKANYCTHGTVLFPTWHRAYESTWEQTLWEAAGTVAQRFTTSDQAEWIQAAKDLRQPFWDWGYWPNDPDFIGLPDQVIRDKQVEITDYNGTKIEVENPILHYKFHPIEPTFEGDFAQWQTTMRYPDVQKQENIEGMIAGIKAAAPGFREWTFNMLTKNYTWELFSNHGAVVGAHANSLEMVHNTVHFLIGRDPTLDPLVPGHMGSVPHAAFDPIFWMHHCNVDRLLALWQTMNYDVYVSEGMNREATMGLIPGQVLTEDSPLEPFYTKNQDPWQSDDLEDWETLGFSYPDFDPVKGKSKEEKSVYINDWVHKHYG
Experiment: Fluorescence quenching of tyrosinase
Format: binding
Conditions: Ka, T 310 K
endpoint name: pKd
Answers are plain numbers, as −log10 of the molar value.

query smiles | observed result
O=c1c(O)c(-c2ccc(O)cc2)oc2cc(O)cc(O)c12 | 4.91

Proceed to the following item.
// sample COc1cc(-c2oc3cc(O)cc(O)c3c(=O)c2O)ccc1O , its pKd was 5.01
